test: Quantitative High-Throughput drug screen in 47 multiple myeloma cell lines against the NCATS MIPE library collection: KHM11_PLB cell viability assay (AID 1918962); details: KHM11 myeloma cell viability, CellTiter-Glo ATP luminescence, 48 h; series mostly up to 45.8 µM; also: nearly all actives have a fitted effect of over 35% in size
Inconclusive results are not listed. Activity calls are given as the source filed them. Calls follow the shape of the dose curve; as a rule, active = well fitted cell-killing curve with a large enough effect; inconclusive = small, poorly fitted or top-dose-only effect, or effect the other way; inactive = no such curve, though single readings can be large or run the other way.
Field 'call' accepts class 1 = active, class 0 = inactive

Per the assay record, what outcome was assigned to `CC[C@H]1CN2CCc3cc(OC)c(OC)cc3[C@H]2C[C@@H]1C[C@@H]1NCCc2cc(OC)c(OC)cc21` ?
class 1

Per the assay record, what outcome was assigned to Nc1ncnc2c1c(-c1cccc(OCc3ccccc3)c1)cn2C1CC(CN2CCCC2)C1 (stereo not drawn) ?
class 1

Per the assay record, what outcome was assigned to `CC(C)c1cc(C(=O)N2Cc3ccc(CN4CCN(C)CC4)cc3C2)c(O)cc1O` ?
class 1

Per the assay record, what outcome was assigned to `O=C(Nc1cc(C(F)(F)F)cc(C(F)(F)F)c1)c1cc(Cl)ccc1O` ?
class 1

Per the assay record, what outcome was assigned to `C[C@@H]1COC(Nc2ccc3ncnc(Nc4ccc(OCc5nccs5)c(Cl)c4)c3c2)=N1` ?
class 1

Per the assay record, what outcome was assigned to `COc1c(OCCCN2CCOCC2)ccc2c3n(c(=NC(=O)c4cnc(N)nc4)nc12)CCN3` ?
class 1

Per the assay record, what outcome was assigned to `CCN(CC)CCNC(=O)c1ccc2nc(-c3ccccc3)c(-c3ccc(CN4CCC(n5c(=O)[nH]c6ccccc65)CC4)cc3)nc2c1` ?
class 1

Per the assay record, what outcome was assigned to `Clc1cccc(-n2nnnc2NCc2ccccc2Oc2ccccn2)c1Cl` ?
class 0

Per the assay record, what outcome was assigned to `CC(=O)OCC(=O)[C@@]1(O)[C@H](C)C[C@H]2[C@@H]3C=C(C)C4=Cc5c(cnn5-c5ccccc5)C[C@]4(C)[C@@H]3[C@@H](O)C[C@@]21C` ?
class 1

Per the assay record, what outcome was assigned to `CNc1nccc(-c2cccnc2Oc2cc(C(=O)Nc3cccc(C(F)(F)F)c3)ccc2C)n1` ?
class 1

Per the assay record, what outcome was assigned to `C=CC(=O)Nc1cc2c(Nc3ccc(F)c(Cl)c3)ncnc2cc1OCCCN1CCOCC1` ?
class 0

Per the assay record, what outcome was assigned to `O=C(CCCCCCC(=O)Nc1ccc([C@H]2O[C@@H](CSc3nc(-c4ccccc4)c(-c4ccccc4)o3)C[C@@H](c3ccc(CO)cc3)O2)cc1)NO` ?
class 1

Per the assay record, what outcome was assigned to `CN(C)CC=CC(=O)Nc1cc2c(Nc3ccc(F)c(Cl)c3)ncnc2cc1O[C@H]1CCOC1` ?
class 1

Per the assay record, what outcome was assigned to `COc1cc(=C2C=c3ccccc3=N2)[nH]c1=Cc1[nH]c(C)cc1C` ?
class 1

Per the assay record, what outcome was assigned to `Nc1nccc(Oc2ccc(NC(=O)c3c[nH]cc(-c4ccc(F)cc4)c3=O)cc2F)c1Cl` ?
class 1

Per the assay record, what outcome was assigned to CCOc1ccccc1OCCNC(C)Cc1ccc(OC)c(S(N)(=O)=O)c1 (stereo not drawn) ?
class 0

Per the assay record, what outcome was assigned to `CC[C@H](CO)Nc1nc(NCc2ccccc2)c2ncn(C(C)C)c2n1` ?
class 1

Per the assay record, what outcome was assigned to `Cc1cn(-c2cc(NC(=O)c3ccc(C)c(Nc4nccc(-c5cccnc5)n4)c3)cc(C(F)(F)F)c2)cn1` ?
class 0

Per the assay record, what outcome was assigned to `Cc1cc(C(=O)N2CCN(c3cccc(Cl)c3)CC2)n(-c2ccccc2)n1` ?
class 1

Per the assay record, what outcome was assigned to `COC(=O)C[C@](O)(CCCC(C)(C)O)C(=O)O[C@@H]1C(OC)=C[C@]23CCCN2CCc2cc4c(cc2[C@H]13)OCO4` ?
class 0

Per the assay record, what outcome was assigned to COc1ccc(-c2cc3c(C)nc(N)nc3n(C3CCC(OCCO)CC3)c2=O)cn1 (stereo not drawn) ?
class 1

Per the assay record, what outcome was assigned to `CCN(CC)CCCCNc1ncc2cc(-c3cc(OC)cc(OC)c3)c(NC(=O)NC(C)(C)C)nc2n1` ?
class 1

Per the assay record, what outcome was assigned to `CNC(=O)c1ccc(N2C(=S)N(c3cnc(C#N)c(C(F)(F)F)c3)C(=O)C23CCC3)cc1F` ?
class 1

Per the assay record, what outcome was assigned to `CC(C)(C)c1cc(C(C)(C)C)c(NC(=O)c2c[nH]c3ccccc3c2=O)cc1O` ?
class 0

Per the assay record, what outcome was assigned to `COC(=O)Nc1ccc(-c2nc(N3CCOCC3)c3cnn(C4CCN(Cc5cccnc5)CC4)c3n2)cc1` ?
class 1

Per the assay record, what outcome was assigned to `COc1cc2c(Oc3ccc(NC(=O)C4(C(=O)Nc5ccc(F)cc5)CC4)cc3F)ccnc2cc1OCCCN1CCOCC1` ?
class 1

Per the assay record, what outcome was assigned to `Cc1cc(CN2CCN(c3c(Br)cnc4nc(-c5ccc(N6CCN(C)CC6)cc5)[nH]c34)CC2)no1` ?
class 1

Per the assay record, what outcome was assigned to `CCc1c2c(nc3ccc(O)cc13)-c1cc3c(c(=O)n1C2)COC(=O)[C@]3(O)CC` ?
class 1

Per the assay record, what outcome was assigned to `CNC(=O)CN1CCC(Oc2cc3c(Nc4cccc(Cl)c4F)ncnc3cc2OC)CC1` ?
class 1

Per the assay record, what outcome was assigned to `CCCCCCCCCC(=O)N[C@@H](Cc1c[nH]c2ccccc12)C(=O)N[C@H](CC(N)=O)C(=O)N[C@@H](CC(=O)O)C(=O)N[C@@H]1C(=O)NCC(=O)N[C@@H](CCCN)C(=O)N[C@@H](CC(=O)O)C(=O)N[C@H](C)C(=O)N[C@@H](CC(=O)O)C(=O)NCC(=O)N[C@H](CO)C(=O)N[C@@H]([C@@H](C)CC(=O)O)C(=O)N[C@@H](CC(=O)c2ccccc2N)C(=O)O[C@@H]1C` ?
class 0

Per the assay record, what outcome was assigned to `COc1cccc2c(NCc3ccccc3)nc(-n3c(N)nc4ccccc43)nc12` ?
class 1

Per the assay record, what outcome was assigned to `CC(C)c1nn(-c2c(Cl)cccc2Cl)c2nc(Cc3ccc(OCCO)cc3)[nH]c(=O)c12` ?
class 1

Per the assay record, what outcome was assigned to `Cc1ccc(C(=O)Nc2cccc(C(F)(F)F)c2)cc1-c1ccc2nc(NCCN3CCOCC3)ncc2c1` ?
class 1

----------
tested on: CP297; test: qHTS profiling for inhibitors of Plasmodium falciparum proliferation (AID 504749); also: nearly all actives have a fitted effect of over 60% in size; also: potency is read from the fitted curve at half-maximal effect; conditions: P. falciparum in erythrocytes, SYBR Green DNA, 72 h; series mostly up to 28.7 µM
Inconclusive results are not listed. Calls of active or inactive are those of the source. Calls follow the shape of the dose curve; as a rule, active = well fitted inhibition curve with a large enough effect; inconclusive = small, poorly fitted or top-dose-only effect; inactive = flat fitted curve, though single readings scatter.
measurement-label: Potency

molecule	system-tested	measurement-label	observed-value
COC(=O)C1=C(C)NC(C)=C(C(=O)OCCN2CCN(C(c3ccccc3)c3ccccc3)CC2)C1c1cccc([N+](=O)[O-])c1 (centres undefined)	CP297	Potency	4260 nM (active)
CC=CC1=C(C(=O)O)N2C(=O)[C@H](NC(=O)[C@H](N)c3ccc(O)cc3)[C@@H]2SC1	CP297	Potency	inactive
COc1c(N2C[C@@H]3CCCN[C@H]3C2)c(F)cc2c(=O)c(C(=O)O)cn(C3CC3)c12	CP297	Potency	inactive
COC(=O)C[C@](O)(CCCC(C)(C)O)C(=O)O[C@@H]1C(OC)=C[C@]23CCCN2CCc2cc4c(cc2[C@H]13)OCO4	CP297	Potency	16.9 nM (active)

----------
tested on: HEK293; assay: Cytotoxic Profiling of Annotated Libraries Using Quantitative High-Throughput Screening (AID 1296008); conditions: Five cell lines viability, CellTiter-Glo ATP luminescence, 48-72 h; also: potency is read from the fitted curve at half-maximal effect; nearly all actives have a fitted effect of over 60% in size
Records with an inconclusive call do not appear. Activity calls are given as the source filed them. Calls come from the whole dose curve; as a rule, active = well fitted inhibition curve with a large enough effect; inconclusive = small, poorly fitted or top-dose-only effect; inactive = flat fitted curve, though single readings scatter.
Consider the following compounds; for each one, report its Potency.

Consider the compound shown here: `O=C(O)c1ccc2cc(-c3ccc(O)c(C45CC6CC(CC(C6)C4)C5)c3)ccc2c1` What is its recorded Potency?
1870 nM (active)

Consider the compound shown here: `CN1CCN(c2ccc3nc(-c4c(N)c5c(F)cccc5[nH]c4=O)[nH]c3c2)CC1` What is its recorded Potency?
1660 nM (active)

Consider the compound shown here: `CC(C)C[C@H](NC(=O)CNC(=O)c1cc(Cl)ccc1Cl)B(O)O` What is its recorded Potency?
1180 nM (active)

Consider the compound shown here: `CC1=C(CO)C(=O)O[C@@H]([C@@H](C)[C@H]2CC[C@H]3[C@@H]4C[C@H]5O[C@]56[C@@H](O)C=CC(=O)[C@]6(C)[C@@H]4CC[C@]23C)C1` What is its recorded Potency?
332 nM (active)

Consider the compound shown here: `COc1cc2ncn(-c3cc(OCc4ccccc4C(F)(F)F)c(C(N)=O)s3)c2cc1OC` What is its recorded Potency?
469 nM (active)

Consider the compound shown here: `OCc1ccc(-c2ccc(-c3ccc(CO)s3)o2)s1` What is its recorded Potency?
142 nM (active)

Consider the compound shown here: `CCC1=C[C@@H]2CN(C1)Cc1c([nH]c3ccccc13)[C@@](C(=O)OC)(c1cc3c(cc1OC)N(C)[C@@H]1[C@@](O)(C(=O)OC)[C@H](OC(C)=O)[C@]4(CC)C=CCN5CC[C@]31[C@@H]54)C2` What is its recorded Potency?
23.5 nM (active)

Consider the compound shown here: CC1(O)CC(c2nc(-c3ccc4ccc(-c5ccccc5)nc4c3)c3c(N)nccn23)C1 (stereo not drawn) What is its recorded Potency?
4690 nM (active)
